Target: PI3Kα (Homo sapiens)
Construct: purchased Merck Millipore (methods text)
Sequence (P42336 whole entry): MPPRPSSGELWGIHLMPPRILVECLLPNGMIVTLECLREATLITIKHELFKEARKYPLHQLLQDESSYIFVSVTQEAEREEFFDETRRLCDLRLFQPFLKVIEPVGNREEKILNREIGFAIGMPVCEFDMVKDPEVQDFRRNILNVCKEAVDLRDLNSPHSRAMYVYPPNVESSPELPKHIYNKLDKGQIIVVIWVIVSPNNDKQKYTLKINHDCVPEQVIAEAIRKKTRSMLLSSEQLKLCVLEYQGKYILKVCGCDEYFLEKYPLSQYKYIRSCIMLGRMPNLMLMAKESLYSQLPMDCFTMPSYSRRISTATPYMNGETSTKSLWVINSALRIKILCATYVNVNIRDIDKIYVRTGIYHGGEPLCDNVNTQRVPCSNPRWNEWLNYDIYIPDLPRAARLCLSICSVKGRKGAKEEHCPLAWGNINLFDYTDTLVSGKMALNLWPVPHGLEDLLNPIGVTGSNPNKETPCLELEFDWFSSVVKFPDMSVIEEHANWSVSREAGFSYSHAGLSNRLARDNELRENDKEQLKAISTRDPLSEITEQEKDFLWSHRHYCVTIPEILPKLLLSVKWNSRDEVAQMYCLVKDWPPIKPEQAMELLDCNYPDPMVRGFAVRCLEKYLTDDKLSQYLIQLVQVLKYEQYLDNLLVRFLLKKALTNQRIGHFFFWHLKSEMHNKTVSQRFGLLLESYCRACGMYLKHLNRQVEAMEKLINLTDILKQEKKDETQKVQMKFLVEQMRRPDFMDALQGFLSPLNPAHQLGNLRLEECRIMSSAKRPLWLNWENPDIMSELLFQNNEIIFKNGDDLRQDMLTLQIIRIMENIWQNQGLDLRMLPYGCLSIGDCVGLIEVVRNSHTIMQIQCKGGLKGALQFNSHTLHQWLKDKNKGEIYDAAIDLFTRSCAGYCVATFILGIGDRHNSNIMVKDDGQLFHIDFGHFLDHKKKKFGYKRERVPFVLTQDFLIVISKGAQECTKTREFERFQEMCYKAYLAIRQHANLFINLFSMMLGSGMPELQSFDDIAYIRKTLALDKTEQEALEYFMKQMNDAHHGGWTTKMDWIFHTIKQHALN
Sequence (P27986 whole entry partner): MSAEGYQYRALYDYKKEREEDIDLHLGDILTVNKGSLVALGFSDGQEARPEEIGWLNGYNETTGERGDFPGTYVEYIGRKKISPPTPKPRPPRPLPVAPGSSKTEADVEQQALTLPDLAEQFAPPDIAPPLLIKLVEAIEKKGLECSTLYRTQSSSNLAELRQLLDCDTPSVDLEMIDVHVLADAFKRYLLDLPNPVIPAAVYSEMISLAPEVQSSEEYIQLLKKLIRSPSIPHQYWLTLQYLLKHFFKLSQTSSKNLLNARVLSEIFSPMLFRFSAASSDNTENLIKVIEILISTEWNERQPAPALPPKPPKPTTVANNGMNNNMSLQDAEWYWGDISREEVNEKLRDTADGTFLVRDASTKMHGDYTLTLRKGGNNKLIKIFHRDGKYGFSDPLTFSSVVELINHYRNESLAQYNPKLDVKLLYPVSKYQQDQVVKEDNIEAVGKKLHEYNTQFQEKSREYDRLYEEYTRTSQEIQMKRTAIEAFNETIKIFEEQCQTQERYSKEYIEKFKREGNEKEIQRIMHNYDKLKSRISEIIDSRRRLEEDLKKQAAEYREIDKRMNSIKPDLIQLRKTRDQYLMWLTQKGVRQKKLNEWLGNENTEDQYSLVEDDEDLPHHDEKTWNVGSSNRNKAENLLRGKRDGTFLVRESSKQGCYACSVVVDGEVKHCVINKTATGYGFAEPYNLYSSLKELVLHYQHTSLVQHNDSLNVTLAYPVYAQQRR
Assay: In vitro PI3K inhibition assay (ADP-Glo kinase assay), PI3Kα
Type: biochemical
Conditions: ratio IC50 PI3Kα / IC50 PI3Kδ
outcome.measure: Fold Selectivity α/δ
Keep the answer to the number alone.

Query: Please look at this molecule and report its Fold Selectivity α/δ: O=C(C1CC1)N1CCN(Cc2cc3nc(-n4c(C(F)F)nc5ccccc54)cc(N4CCOCC4)n3n2)CC1 [Compound 18]
Reply: 3.0

Query: Please look at this molecule and report its Fold Selectivity α/δ: CC(C)(C)N1CCN(Cc2cc3nc(-n4c(C(F)F)nc5ccccc54)cc(N4CCOCC4)n3n2)CC1 [Compound 6]
Reply: 79

Query: Please look at this molecule and report its Fold Selectivity α/δ: CC(C)(C(N)=O)N1CCN(Cc2cc3nc(-n4c(C(F)F)nc5ccccc54)cc(N4CCOCC4)n3n2)CC1 [Compound 17]
Reply: 20

Query: Please look at this molecule and report its Fold Selectivity α/δ: Cc1nc2ccccc2n1-c1cc(N2CCOCC2)n2nc(CN3CCC(C(C)(C)O)CC3)cc2n1 [Compound 12]
Reply: 35

Query: Please look at this molecule and report its Fold Selectivity α/δ: CS(=O)(=O)N1CCN(Cc2cc3nc(-n4c(C(F)F)nc5ccccc54)cc(N4CCOCC4)n3n2)CC1 [Compound 16]
Reply: 1.0

Query: Please look at this molecule and report its Fold Selectivity α/δ: CC(C)(O)C1CCN(Cc2cc3nc(-n4c(C(F)F)nc5ccccc54)cc(N4CCOCC4)n3n2)CC1 [Compound 11]
Reply: 33

Query: Please look at this molecule and report its Fold Selectivity α/δ: CC(C)(C)N1CCN(Cc2cc3nc(-n4c(C5CC5)nc5ccccc54)cc(N4CCOCC4)n3n2)CC1 [Compound 8]
Reply: 77

Query: Please look at this molecule and report its Fold Selectivity α/δ: Cc1nc2ccccc2n1-c1cc(N2CCOCC2)n2nc(CN3CCN(C(C)(C)C)CC3)cc2n1 [Compound 5]
Reply: 45

Query: Please look at this molecule and report its Fold Selectivity α/δ: CCc1nc2ccccc2n1-c1cc(N2CCOCC2)n2nc(CN3CCN(C(C)(C)C)CC3)cc2n1 [Compound 7]
Reply: 74
